# IC50 annotations
test system: NIH3T3; assay: CellTiter-Glo viability, NIH3T3 cells (Table 14); assay type: cell-based; conditions: Mus musculus, 48 hrs, n = 3
Number in µM, nothing else.

{"columns": ["Compound", "IC50, µM"],
 "data": [
  ["CC(C)(C)C1CCC2(CC1)OOC1(CCC(OC(=O)NCCC[P+](c3ccccc3)(c3ccccc3)c3ccccc3)CC1)OO2.[Br-] (centres unmarked) [Compound 37b]", 4.6]
]}

Please look at the following compound next.
Problem: Supply reported IC50 belonging to this compound: CC(C)(C)C1CCC2(CC1)OOC1(CCC(OC(=O)NCCC[N+](C)(Cc3ccccc3)Cc3ccccc3)CC1)OO2.[I-] (centres unmarked) [Compound 48]
Solution: 29

----------
# IC50 annotations
system: bEnd.3 cells; assay: MTT viability assay, bEnd.3 cells; assay type: cell-based, mouse; settings: Mus musculus, BEND3, 48 h incubation, mean, n = 3, read-out: IC50 against bEnd.3 cells
Number in µM, nothing else.

{"columns": ["Compound", "Measurement target", "Result units", "Data value"],
 "data": [
  ["CC(C)(C)C1CCC2(CC1)OOC1(CCC(OC(=O)NCCC[P+](c3ccccc3)(c3ccccc3)c3ccccc3)CC1)OO2.[Br-] (stereo not drawn) [Compound 37b]", "bEnd.3 cells", "µM", 5.2]
]}

Problem: Report measured IC50 on bEnd.3 cells; entry: CN(C)CCCNC(=O)OC1CCC2(CC1)OOC1(CCC(C(C)(C)C)CC1)OO2 (stereo not drawn) [Compound 37a]
Solution: 10.9

----------
tested on: MDA-MB-231 cells; assay: MTT viability assay, MDA-MB-231 cells; format: cell-based; details: Homo sapiens, MDA-MB-231, 48 h, MTT, 48 h incubation, mean, n = 3; read-out: IC50 against MDA-MB-231 cells
# pIC50 annotations
Worth noting: pIC50 values are minus log10 of concentrations stated in mol/L.

{"columns": ["Compound", "pIC50"],
 "data": [
  ["CC1=CC(=O)C(C(C)(C)CC(=O)N2CCN(C(=O)OC3CCC4(CC3)OOC3(CCC(C(C)(C)C)CC3)OO4)CC2)=C(C)C1=O (centres unmarked) [Compound 37g]", 4.96],
  ["CC(C)(C)C1CCC2(CC1)OOC1(CCC(OC(=O)NCCC[N+](Cc3ccccc3)(Cc3ccccc3)Cc3ccccc3)CC1)OO2 (centres unmarked)", 5.54],
  ["C#CCCNC(=O)OCC(C)(C)C1CCC2(CC1)OOC1(CCC(OC(=O)NCCC[N+](C)(Cc3ccccc3)Cc3ccccc3)CC1)OO2 (centres unmarked)", 5.06],
  ["C[N+](CCCNC(=O)OC1CCC2(CC1)OOC1(CCCCC1)OO2)(Cc1ccccc1)Cc1ccccc1 [Compound 59a]", 4.98],
  ["C#CCCNC(=O)OCC(C)(C)C1CCC2(CC1)OOC1(CCC(O)CC1)OO2 (centres unmarked)", 4.61]
]}

Please look at the following compound next.
Problem: Report measured pIC50 on MDA-MB-231 cells; entry: C[n+]1ccc(CNC(=O)OC2CCC3(CC2)OOC2(CCC(C(C)(C)C)CC2)OO3)cc1 (centres unmarked)
Solution: 4.72

----------
system: HL-60 cells; experiment: MTT viability assay, HL-60 cells; assay type: cell-based; settings: Homo sapiens, HL-60; Table 12b; read-out: IC50 HL-60
Assay readout: IC50 (µM)
Number in µM, nothing else.

Problem: Report measured IC50 on HL-60 cells; entry: CC(C)(C)C1CCC2(CC1)OOC1(CCC(OC(=O)NCCC[N+](C)(Cc3ccccc3)Cc3ccccc3)CC1)OO2.[I-] (stereo not shown)
Solution: 1.2

----------
system: NIH3T3 cells; assay: MTT viability assay, non-cancerous NIH3T3 cells; format: cell-based; details: MTT, 48 h incubation, mean, n = 3; read-out: IC50 against NIH3T3 cells
# IC50 annotations
Number in µM, nothing else.

{"columns": ["Compound", "Result units", "Data value"],
 "data": [
  ["COC(=O)c1ccc([C@@H]2c3[nH]c4ccccc4c3C[C@@H](C(=O)OC)N2C(=O)CCl)cc1 [RSL3, reference compound]", "µM", 0.028]
]}

Please look at the following compound next.
Problem: Supply reported IC50 belonging to this compound: O=C(NCCC[P+](c1ccccc1)(c1ccccc1)c1ccccc1)OC1CCC2(CC1)OOC1(OO2)C2CC3CC(C2)CC1C3 (stereo not drawn) [Compound 30b]
Solution: 5.8

----------
Test system: MDA-MB-231 cells
Test: MTT viability assay, MDA-MB-231 cells
Format: cell-based
Settings: Homo sapiens, MDA-MB-231, Table 12b; read-out: IC50 MDA-MB-231
Procedure: The anticancer activities of the exemplary compounds listed in Example 1 were tested against human cervix Hela cells, mammary breast cancer MDA-MB-231 cells, human hepatocellular HepG2 cells, human colorectal HCT116 cells, mammary ductal T47D cells, non-cancerous NIH3T3 cells, dog's kidney MDCK cells, and mouse brain bEnd.3 cells, respectively.
# pIC50 annotations
Worth noting: pIC50 values are minus log10 of concentrations stated in mol/L.

Problem: Supply reported pIC50 belonging to this molecule: CC1=CC(=O)C(C(C)(C)CC(=O)N2CCN(C(=O)OC3CCC4(CC3)OOC3(CCC(C(C)(C)C)CC3)OO4)CC2)=C(C)C1=O (stereo not drawn) [Compound 37g]
Solution: 4.96

Problem: Supply reported pIC50 belonging to this molecule: CCCC[N+](C)(CCCC)CCCNC(=O)OC1CCC2(CC1)OOC1(CCC(C(C)(C)C)CC1)OO2.[I-] (stereo not drawn)
Solution: 5.43

Problem: Supply reported pIC50 belonging to this molecule: CC(C)(C)C1CCC2(CC1)OOC1(CCC(OC(=O)NCCC[P+](c3ccccc3)(c3ccccc3)c3ccccc3)CC1)OO2.[Br-] (stereo not drawn) [Compound 37b]
Solution: 6.40

----------
system: MDA-MB-231 cells; assay: MTT viability assay, MDA-MB-231 cells; type: cell-based; conditions: Homo sapiens, MDA-MB-231, 48 h, MTT, 48 h incubation, mean, n = 3; read-out: IC50 against MDA-MB-231 cells
# IC50 annotations
Number in µM, nothing else.

{"columns": ["Molecule", "IC50 / µM"],
 "data": [
  ["CC(C)(C)C1CCC2(CC1)OOC1(CCC(OC(=O)NCCC[N+](C)(C)Cc3ccccc3)CC1)OO2 (stereo not shown)", 14.7]
]}

Please look at the following molecule next.
Problem: Supply reported IC50 belonging to this molecule: CC(C)(C)C1CCC2(CC1)OOC1(CCC(OC(=O)NCCC[N+](C)(C)C)CC1)OO2 (stereo not shown)
Solution: 31.5

----------
system: HepG2 cells; assay: MTT viability assay, HepG2 cells; type: cell-based, human; conditions: Homo sapiens, HepG2; MTT, 48 h incubation, mean, n = 3; read-out: IC50 against HepG2 cells
# pIC50 annotations
Worth noting: pIC50 values are minus log10 of concentrations stated in mol/L.

Consider the worked cases shown below.
{"columns": ["Compound", "Measurement target", "Assay readout", "Data value"],
 "data": [
  ["CN(C)CCCNC(=O)OC1CCC2(CC1)OOC1(CCC(C(C)(C)C)CC1)OO2 (stereo not drawn) [Compound 37a]", "HepG2 cells", "pIC50", 5.70],
  ["CC(C)(C)C1CCC2(CC1)OOC1(CCC(O)CC1)OO2 (stereo not drawn)", "HepG2 cells", "pIC50", 5.32]
]}

Please look at the following compound next.
Problem: Supply reported pIC50 belonging to this compound: CC(C)(C)C1CCC2(CC1)OOC1(CCC(OC(=O)NCCC[P+](c3ccccc3)(c3ccccc3)c3ccccc3)CC1)OO2.[Br-] (stereo not drawn) [Compound 37b]
Solution: 6.15

----------
system: MDA-MB-231 cells; assay: MTT viability assay, MDA-MB-231 cells; format: cell-based; details: Homo sapiens, MDA-MB-231, Table 12b; read-out: IC50 MDA-MB-231
Assay readout: pIC50
Worth noting: pIC50 values are minus log10 of concentrations stated in mol/L.

Consider the worked cases shown below.
{"columns": ["Compound", "Data value"],
 "data": [
  ["CC(C)(C)C1CCC2(CC1)OOC1(CCC(OC(=O)N3CCNCC3)CC1)OO2 (stereo not shown) [Compound 37f]", 5.54],
  ["CC(C)(C)C1CCC2(CC1)OOC1(CCC(OC(=O)NCCC[N+](C)(Cc3ccccc3)Cc3ccccc3)CC1)OO2.[I-] (stereo not shown)", 5.62],
  ["CCCC[P+](CCCC)(CCCC)CCCNC(=O)OC1CCC2(CC1)OOC1(CCC(C(C)(C)C)CC1)OO2.[Br-] (stereo not shown)", 6.01]
]}

Please look at the following compound next.
Problem: Supply reported pIC50 belonging to this compound: C#CCCN(CCC[N+](C)(Cc1ccccc1)Cc1ccccc1)C(=O)OC1CCC2(CC1)OOC1(CCC(C(C)(C)C)CC1)OO2.[I-] (stereo not shown)
Solution: 6.10

Origin of measurements: patent US20240101584A1
